The compounds listed here are annotated with their pIC50.
- System: EGFR (murine)
- Condition set: nih3t3/c7
pIC50: −log10 of the molar value.

Previously resolved entries follow.
[
  {
    "Compound": "N#CC(C#N)=CNNc1cccc(Cl)c1",
    "Reported metric": "pIC50",
    "Reported": "< 4.30"
  },
  {
    "Compound": "CC(C)(C)c1cc(/C=C(\\C#N)S(=O)(=O)/C(C#N)=C/c2cc(C(C)(C)C)c(O)c(C(C)(C)C)c2)cc(C(C)(C)C)c1O",
    "Reported metric": "pIC50",
    "Reported": "< 4.00"
  }
]

Enquiry: What pIC50 value was documented for this compound, CC(=O)ON=C(Cl)C1=C[NH+]([O-])c2cc(Cl)ccc2[NH+]1[O-] (centres undefined) ?
Return: < 4.30

Enquiry: I am curious: what pIC50 value has been reported for CC(=O)C1=C(c2ccccc2)[NH+]([O-])c2ccccc2[NH+]1[O-] (centres undefined) ?
Return: < 4.00

src = the Kinase Knowledgebase extract (Sharma et al. 2016)
